These measurements were taken from patent US20260242478A1.

Assayed target: T1, Anti-CD28 Fab (SEQ ID NOs: 696, 697)
T1 construct: In the phage ELISA the Fab was biotinylated and captured on neutravidin coated plates
T1 sequence (VH, as listed by the source, chain 1 of 2): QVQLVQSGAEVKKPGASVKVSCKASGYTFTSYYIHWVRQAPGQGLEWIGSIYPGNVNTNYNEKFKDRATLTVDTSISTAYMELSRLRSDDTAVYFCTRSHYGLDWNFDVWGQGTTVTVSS
T1 sequence (VL, as listed by the source, chain 2 of 2): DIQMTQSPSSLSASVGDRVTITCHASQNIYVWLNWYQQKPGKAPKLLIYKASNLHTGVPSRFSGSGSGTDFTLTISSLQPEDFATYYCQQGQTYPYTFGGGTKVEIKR
Test details: phage binding ELISA; biotinylated anti-CD28 Fab on neutravidin plate, bound phage detected with anti-M13-HRP
Reported property: Anti-CD28 Fab signal (phage binding ELISA)

> print(dat)
                        binder  assay.result
 1  YCDGHVGEYMQKCL [Phage-683]          2.05
 2  YCLGHAPQYIQKCL [Phage-693]          2.04
 3  YCDGHLIEYMEKCL [Phage-688]          2.04
 4  YCDGHSAQYMHKCL [Phage-684]          2.05
 5  YCEGHSPQYMSKCL [Phage-691]          2.04
 6  YCDGHFREYMQKCL [Phage-692]          2.04
 7  YCDGHSSEYMWKCL [Phage-694]          2.03
 8  YCSGHLPEYMSKCL [Phage-695]          2.03
 9  YCEGHAPQHMDKCL [Phage-690]          2.04
10  YCDGHLPEYQMKCL [Phage-686]          2.05
11  YCEGHAIQYMSKCL [Phage-689]          2.04
12  YCEGHAPEYMYKCL [Phage-685]          2.05
13  YCDGHASEYMMKCL [Phage-687]          2.05
